Assay: Quantitative High-Throughput drug screen in 47 multiple myeloma cell lines against the NCATS MIPE library collection: MOLP8_DSMZ cell viability assay (AID 1918977); further: nearly all actives have a fitted effect of over 45% in size
Settings: MOLP8 myeloma viability, CellTiter-Glo ATP luminescence, 48 h; series mostly up to 45.8 µM
Results filed as inconclusive are left out. The source made the active and inactive calls. The call rests on the fitted dose curve; in most records, active means well fitted cell-killing curve with a large enough effect; inconclusive means small, poorly fitted or top-dose-only effect, or effect the other way; inactive means no such curve, though single readings can be large or run the other way.
Classes used: active, inactive

INSERT INTO measurements (compound, answer_label) VALUES
  ('Cc1c(CN2CCN(C(=O)C(C)C)CC2)sc2c(N3CCOCC3)nc(-c3cnc(N)nc3)nc12', 'active'),
  ('OCCC#Cc1nc(-c2ccc(F)cc2)c(-c2ccncc2)n1CCCc1ccccc1', 'inactive'),
  ('COc1ccc(COc2cc3oc(=O)c4cc(C(C)O)ccc4c3cc2OC)cc1 (centres undefined)', 'active'),
  ('COc1ccc2c3n(c(=NC(=O)c4cccnc4)nc2c1OC)CCN3', 'active'),
  ('Cn1cnc([N+](=O)[O-])c1Sc1ncnc2nc[nH]c12', 'inactive'),
  ('COc1cc2nccc(Oc3ccc(NC(=O)NC4CC4)c(Cl)c3)c2cc1C(N)=O', 'active'),
  ('CCOC(=O)N[C@@H]1CC[C@@H]2[C@@H](C1)C[C@H]1C(=O)O[C@H](C)[C@H]1[C@@H]2C=Cc1ccc(-c2cccc(F)c2)cn1', 'inactive'),
  ('CCn1cc(C(=O)O)c(=O)c2cc(F)c(N3CCNC(C)C3)c(F)c21 (centres undefined)', 'inactive'),
  ('Nc1cccc(S(=O)(=O)N2CCCN(S(=O)(=O)c3ccc4c(c3)OCCO4)CC2)c1', 'inactive');

----------
System: Zika virus NS2B-NS3 protease (unlinked)
Assay: Optimization of GU AMC qHTS for Zika virus inhibitors: Unlinked NS2B-NS3 protease assay (AID 1347151); further: nearly all actives have a fitted effect of over 80% in size
Conditions: recombinant ZIKV NS2B-NS3 protease, fluorogenic AMC substrate; series mostly up to 52.5 µM
Inconclusive results are not listed. The source made the active and inactive calls. The call rests on the fitted dose curve; in most records, active means well fitted inhibition curve with a large enough effect; inconclusive means small, poorly fitted or top-dose-only effect; inactive means no such curve, though single readings can be large or run the other way.
Possible outcomes: TRUE for active, FALSE for inactive

INSERT INTO measurements (compound, answer_label) VALUES
  ('Cc1ccccc1C(OCCN(C)C)c1ccccc1 (stereo not drawn)', 'FALSE'),
  ('CC(C)(C)NCC(O)c1ccc(O)c(CO)c1 (stereo not drawn)', 'FALSE'),
  ('CCCC(CCC)C(=O)O', 'FALSE'),
  ('NNCCc1ccccc1', 'FALSE'),
  ('O=C1CCc2cc(OCCCCc3nnnn3C3CCCCC3)ccc2N1', 'FALSE'),
  ('NC[C@H](O)c1ccc(O)c(O)c1', 'FALSE'),
  ('Cc1[nH]c(=O)c(C#N)cc1-c1ccc2nccn2c1', 'TRUE'),
  ('C1COC(NC(C2CC2)C2CC2)=N1', 'FALSE'),
  ('CC(C)(Sc1ccc(CCN(CCCCC2CCCCC2)C(=O)NC2CCCCC2)cc1)C(=O)O', 'TRUE'),
  ('c1ccc([C@H]2CN3CCSC3=N2)cc1', 'FALSE'),
  ('Clc1cccc(Cl)c1NC1=NCCN1', 'FALSE'),
  ('CC(C)NCC(O)COc1ccc(COCCOC(C)C)cc1 (stereo not drawn)', 'FALSE'),
  ('Cc1cnc(NC(=O)C2=C(O)c3ccccc3S(=O)(=O)N2C)s1', 'FALSE');

----------
Test system: SKOV3
Experiment: Primary qHTS to identify gynecologic anti-cancer compounds using libraries of approved drugs and bioactive compounds (AID 1345084); further: nearly all actives have a fitted effect of over 55% in size
Settings: Gynecologic cancer cell panel viability, ATPlite luminescence, 48 h; series mostly up to 57.5 µM
Results filed as inconclusive are left out. Activity calls are given as the source filed them. Calls follow the shape of the dose curve; as a rule, active = well fitted cell-killing curve with a large enough effect; inconclusive = small, poorly fitted or top-dose-only effect, or effect the other way; inactive = flat fitted curve, though single readings scatter.
Labels: TRUE = active, FALSE = inactive

INSERT INTO assay_data (compound, answer_label) VALUES
  ('CCn1cc(C(=O)O)c(=O)c2cc(F)c(N3CCNC(C)C3)c(F)c21 (stereo not drawn)', 'FALSE'),
  ('CC(c1cc2ccccc2s1)N(O)C(N)=O (stereo not drawn)', 'FALSE'),
  ('C[C@@H]1CN(Cc2ccc(F)cc2)[C@@H](C)CN1C(=O)c1cc2c(C(=O)C(=O)N(C)C)cn(C)c2cc1Cl', 'FALSE'),
  ('CNC[C@H](O)c1cccc(O)c1', 'FALSE'),
  ('O=c1[nH]cnc2[nH]ncc12', 'FALSE'),
  ('NS(=O)(=O)c1cc2c(cc1Cl)NC=NS2(=O)=O', 'FALSE'),
  ('COc1cc(Oc2ccnc3cc(OC)c(OC)cc23)ccc1NC(=O)NC(C)c1nccs1 (stereo not drawn)', 'FALSE'),
  ('OCCn1cc(-c2cnc3nnn(Cc4ccc5ncccc5c4)c3n2)cn1', 'FALSE'),
  ('CC(C[N+](C)(C)C)OC(N)=O (stereo not drawn)', 'FALSE'),
  ('CN1CCN(CCCN2c3ccccc3Sc3ccc(C(F)(F)F)cc32)CC1', 'TRUE'),
  ('NC(=O)c1cnccn1', 'FALSE'),
  ('O=C1CCCC2=C1C(c1[nH]ncc1Cl)N=C(Nc1nc3ccccc3o1)N2 (stereo not drawn)', 'FALSE'),
  ('Cc1ccnc(NS(=O)(=O)c2ccc(NC(=O)Nc3ccc(S(=O)(=O)Nc4nccc(C)n4)cc3)cc2)n1', 'FALSE'),
  ('CS(=O)(=O)c1ccc(C(=O)Nc2ccc(Cl)c(-c3ccccn3)c2)c(Cl)c1', 'FALSE'),
  ('CCOc1ccn(-c2ccc(F)cc2)c(=O)c1C(=O)Nc1ccc(Oc2ccnc(N)c2Cl)c(F)c1', 'FALSE'),
  ('OC(CN1CCC(Cc2ccc(F)cc2)CC1)c1ccc(Cl)cc1 (stereo not drawn)', 'FALSE'),
  ('Oc1ccc(C2CNCCc3c2cc(O)c(O)c3Cl)cc1 (stereo not drawn)', 'FALSE'),
  ('CN(C)c1ccc(C2Nc3ccc4ccccc4c3C3=C2C(=O)CC(C)(C)C3)cc1Br (stereo not drawn)', 'FALSE'),
  ('CNC(=O)c1ccc(C)c(-n2c(C)cc(OCc3ccc(F)cc3F)c(Br)c2=O)c1', 'FALSE'),
  ('Cc1cn[nH]c1', 'FALSE'),
  ('NNCCc1ccccc1', 'FALSE'),
  ('COc1cc(F)c(F)c(Nc2ccc(I)cc2F)c1NS(=O)(=O)C1(C[C@H](O)CO)CC1', 'FALSE'),
  ('CC(C)NCC(O)COc1ccc(COCCOC(C)C)cc1 (stereo not drawn)', 'FALSE');

----------
Assay: P-glycoprotein substrates identified in KB-8-5-11 adenocarcinoma cell line, qHTS therapeutic library screen (AID 1346987); further: nearly all actives have a fitted effect of over 65% in size
Conditions: KB-8-5-11 (P-gp overexpressing) viability, CellTiter-Glo, 72 h; series mostly up to 44.5 µM
Records with an inconclusive call do not appear. Activity calls are given as the source filed them. The call rests on the fitted dose curve; in most records, active means well fitted inhibition curve with a large enough effect; inconclusive means small, poorly fitted or top-dose-only effect; inactive means flat fitted curve, though single readings scatter.
Outcomes: yes (1) = active, no (0) = inactive

INSERT INTO assay_data (compound, answer_label) VALUES
  ('CCC(C)(C)C(=O)O[C@H]1C[C@@H](C)C=C2C=C[C@H](C)[C@H](CC[C@@H]3C[C@@H](O)CC(=O)O3)[C@H]21', 'yes (1)'),
  ('CN(C)c1ccc(C2Nc3ccc4ccccc4c3C3=C2C(=O)CC(C)(C)C3)cc1Br (stereo not drawn)', 'no (0)'),
  ('CC1(C)CNc2cc(NC(=O)c3cccnc3NCc3ccncc3)ccc21', 'no (0)'),
  ('NNCCc1ccccc1', 'no (0)'),
  ('CCn1c(-c2nonc2N)nc2cnc(Oc3cccc(NC(=O)c4ccc(OCCN5CCOCC5)cc4)c3)cc21', 'yes (1)'),
  ('Cc1csc(NC(=O)c2sc3nc4c(c(C(F)(F)F)c3c2N)CCC4)n1', 'no (0)'),
  ('CCOC(=O)C1=C[C@]2(CC)CCCN3CCc4c(n1c1ccccc41)[C@@H]32', 'yes (1)'),
  ('CC(C)(Sc1ccc(CCN(CCCCC2CCCCC2)C(=O)NC2CCCCC2)cc1)C(=O)O', 'no (0)'),
  ('Cc1ccc(NC(=O)c2cccc(C(C)(C)C#N)c2)cc1Nc1ccc2ncn(C)c(=O)c2c1', 'yes (1)'),
  ('Cc1cc(C=c2sc3nc4ccccc4n3c2=O)c(C)n1-c1ccccc1', 'no (0)'),
  ('CCOc1cc(C=C2C(=O)N(c3ccccc3)N=C2C)cc(Cl)c1OCC(=O)OC', 'no (0)'),
  ('CC(=O)NC(C)c1ccc(Oc2ccc(OC(C)C)cc2)cc1 (stereo not drawn)', 'no (0)'),
  ('CCn1c(-c2nonc2N)nc2c(C#CC(C)(C)O)ncc(OC[C@H]3CCCNC3)c21', 'no (0)'),
  ('CCc1ccc(CCOc2ccc(CC3SC(=O)NC3=O)cc2)nc1 (stereo not drawn)', 'no (0)'),
  ('Cc1cc2c(C(C)C)c(O)c(O)c(C=O)c2c(O)c1-c1c(C)cc2c(C(C)C)c(O)c(O)c(C=O)c2c1O', 'yes (1)'),
  ('Cc1cc(SCc2sc(-c3ccc(C(F)(F)F)cc3)nc2C)ccc1OCC(=O)O', 'no (0)'),
  ('Cc1cnc(NC(=O)C2=C(O)c3ccccc3S(=O)(=O)N2C)s1', 'no (0)'),
  ('COc1ccc(-c2ccc3c(N4CCOCC4)nc(N4C[C@@H](C)O[C@@H](C)C4)nc3n2)cc1CO', 'yes (1)');
